Improvement of EC50 vs 2A8 wt values by entry
# study target: recombinant TFPI of the FXa restoring assay (human, mouse or rat; species not stated for Tables 9 and 10)
# experiment summary: cell-based or functional assay
Output spec: scalar in fold, unitless text.

Below, each entry is followed by its recorded Improvement of EC50 vs 2A8 wt result.
2A8 HC K99L (Fab, V domains shown) VH: QVQLVESGGGLVQPGGSLRLSCAASGFTFRSYGMSWVRQAPGKGLEWVSSIRGSSSSTYYADSVKGRFTISRDNSKNTLYLQMNSLRAEDTAVYYCARLYRYWFDYWGQGTLVTVSS VL: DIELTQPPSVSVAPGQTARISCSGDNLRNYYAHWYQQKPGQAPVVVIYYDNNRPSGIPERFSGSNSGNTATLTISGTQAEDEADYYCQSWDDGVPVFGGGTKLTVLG ... 7.9
2A8-200 (Fab, V domains shown) VH: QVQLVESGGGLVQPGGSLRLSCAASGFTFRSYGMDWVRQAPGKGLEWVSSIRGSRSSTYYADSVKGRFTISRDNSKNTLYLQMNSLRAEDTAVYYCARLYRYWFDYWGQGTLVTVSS VL: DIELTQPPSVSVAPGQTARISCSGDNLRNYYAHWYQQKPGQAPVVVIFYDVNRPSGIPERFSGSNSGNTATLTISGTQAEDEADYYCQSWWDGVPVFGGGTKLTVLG ... 9.7

Task: Look at this binder and give its reported Improvement of EC50 vs 2A8 wt. 2A8 wild-type Fab (Fab, V domains shown) VH: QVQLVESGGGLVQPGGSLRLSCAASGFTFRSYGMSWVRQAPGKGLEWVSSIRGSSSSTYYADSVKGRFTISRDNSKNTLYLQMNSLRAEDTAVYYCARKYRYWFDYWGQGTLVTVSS VL: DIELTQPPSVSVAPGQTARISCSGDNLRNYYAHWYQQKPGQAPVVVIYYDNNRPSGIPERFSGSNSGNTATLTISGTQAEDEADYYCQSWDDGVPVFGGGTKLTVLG
Output: 1

Data origin, for the record: patent US20120108796A1
